- assay: growth inhibition of WT strain, primary screen, mitochondrial fusion inhibitor project, WT and mutant strains, chemical genetic (AID 1362)
- experimentalContext: mitochondrial fusion phenotypic screen, mutant strain inhibition; at 10 µM
Out of some 190,000 compounds screened, about 4,000 (2.1%) were called active. The entries come from a sample that favours actives as a whole.
Measured inhibition, listed per entry for reference.

molecule: C/C(=N/NC(=O)c1ccc(Br)o1)c1ccc(C)o1
inhibition: -8.07%

molecule: Cc1ccc(NC(=S)NC2CCCC2)cc1
inhibition: -5.24%

molecule: O=C(O)c1ccc(N/N=C/c2cn(-c3ccccc3)nc2-c2cccs2)cc1
inhibition: 5.64%

molecule: CCCN(CC(=O)Nc1ccc(OC)c(OC)c1)CC(=O)Nc1ccc(F)c(F)c1F
inhibition: 28.4%

molecule: Cn1nnnc1NCc1ccc(Cl)c(Cl)c1
inhibition: 14.5%

molecule: O=C(C(=O)N1CCc2ccccc2C1)c1c[nH]c2ccccc12
inhibition: -9.54%

molecule: CCCCCC(=O)Nc1ccc(C(=O)N/N=C/c2ccc([N+](=O)[O-])cc2)cc1
inhibition: 15.9%

molecule: COc1ccc(C(=O)NCC(=O)N/N=C/c2ccc([N+](=O)[O-])s2)cc1OC
inhibition: -9.98%

molecule: CCC1CCCCN1S(=O)(=O)Cc1ccccc1Cl (configuration not stated)
inhibition: 1.41%

molecule: CN1C2CCC1/C(=C\c1ccccc1Cl)C(=O)/C2=C\c1ccccc1Cl
inhibition: 32.3%

molecule: Cc1ccc(NC(=O)NNC(=O)c2sccc2-n2cccc2)cc1
inhibition: -0.19%

molecule: CCOc1ccc(C2c3[nH]c4ccccc4c3CCN2Cc2cn(CC)nc2C)cc1 (configuration not stated)
inhibition: 39.9%

molecule: CC(C)(C)NC(=O)CN1CCC(NC(=O)C23CC4CC(CC(C4)C2)C3)CC1
inhibition: -4.48%

molecule: Cc1cc(NS(=O)(=O)c2ccc(NC(=O)c3cccc(OC(F)F)c3)cc2)nc(C)n1
inhibition: 6.49%

molecule: COc1cccc(N(Cc2nnc3n2CCCCC3)C(=O)Nc2ccccc2F)c1
inhibition: 6.31%

molecule: O=C(CN1CCCCCC1)NCCN1C(=O)S/C(=C\c2ccccc2Cl)C1=O
inhibition: -4.16%

molecule: CCOc1ccc(NC(=O)CCC(=O)n2nc(C)cc2C)cc1
inhibition: -6.56%

molecule: CCOc1cc(CNn2c(C)nnc2SCC(=O)NC(C)(C)C)ccc1OCC(=O)NC(C)(C)C
inhibition: 0.2%

molecule: CCc1cccc2c(=O)c(C(=O)NCCCOC)c[nH]c12
inhibition: 8.59%

molecule: COc1ccc(/C=C/C(=O)OCC(=O)Nc2cccc(Oc3ccccc3)c2)c(OC)c1
inhibition: 8.13%

molecule: COc1cccc(-c2nc(S(=O)(=O)c3ccccc3)c(N3CCOCC3)o2)c1
inhibition: -5.11%

molecule: CS(=O)(=O)N(CC(=O)N/N=C/c1ccccn1)c1ccc(Oc2ccccc2)cc1
inhibition: 10.6%

---

- assay: growth inhibition of WT strain, primary screen, mitochondrial fusion inhibitor project, WT and mutant strains, chemical genetic (AID 1362)
- experimentalContext: mitochondrial fusion phenotypic screen, WT strain, growth inhibition; at 10 µM; stronger effect = higher value
About 4,000 (2.1%) of roughly 190,000 compounds were called active. The entries come from a sample that favours actives as a whole.
Listing: inhibition of selected molecules

molSmiles: CN1C2CCC1/C(=C\c1ccccc1Cl)C(=O)/C2=C\c1ccccc1Cl
resultUnit: %
inhibition: 60.7
//
molSmiles: CS(=O)(=O)N(CC(=O)NC1CCCC1)Cc1ccc(F)cc1
resultUnit: %
inhibition: 1.23
//
molSmiles: CCOC(=O)C1CCN(c2ncnc3c2c(-c2ccccc2)cn3-c2ccc(C)cc2)CC1
resultUnit: %
inhibition: 14.7
//
molSmiles: O=C(CN1CCCCCC1)NCCN1C(=O)S/C(=C\c2ccccc2Cl)C1=O
resultUnit: %
inhibition: 2.91
//
molSmiles: COc1cccc(N(Cc2nnc3n2CCCCC3)C(=O)Nc2ccccc2F)c1
resultUnit: %
inhibition: 9.35

---

- assay: growth inhibition of WT strain, primary screen, mitochondrial fusion inhibitor project, WT and mutant strains, chemical genetic (AID 1362)
- experimentalContext: mitochondrial fusion phenotypic screen, mutant strain inhibition; at 10 µM
Hit rate of the full screen: of about 190,000 compounds, about 4,000 (2.1%) were called active. Only a selection was taken, and actives are over-represented in it overall.

compound: CCCN(C(=O)CSc1nnnn1C)c1c(N)n(Cc2ccccc2)c(=O)[nH]c1=O
inhibition (%): -15.2

compound: CCOc1cc(N2CCOCC2)c(OCC)cc1NC(=O)c1cc(C)nc2ccccc12
inhibition (%): -29.4

compound: N#CC1(C#N)C(C(=O)C23CC4CC(CC(C4)C2)C3)C12CCOCC2 (stereo not drawn)
inhibition (%): 11.6

compound: O=C(N/N=C/c1ccc([N+](=O)[O-])cc1)C(=O)N1CCCC1
inhibition (%): 10.6

compound: Cc1cc(C#N)c(SCC(N)=O)nc1-c1ccc(F)cc1
inhibition (%): 0.95

compound: COC(=O)c1sccc1NC(=O)c1csc2c1CCCC2
inhibition (%): 48.8

compound: Cc1ccc(S(=O)(=O)Nc2nc(N)n(-c3ccccc3)n2)cc1
inhibition (%): 3.67

compound: Cc1cc(=O)[nH]c(SCC(N)=O)c1C#N
inhibition (%): -65.4

compound: COc1cc(NC(=O)c2ccccc2NS(=O)(=O)c2ccc(Cl)s2)cc(OC)c1
inhibition (%): 46.5

compound: COC(=O)c1sc(NC(=O)c2csc3c2CCCC3)nc1C
inhibition (%): 0.86

compound: CC(C)Oc1ccc(CCc2n[nH]c(=S)n2Cc2ccccc2)cc1
inhibition (%): 0.86

compound: Cc1cc(C)c(C#N)c(SCC(=O)Nc2ccccc2)n1
inhibition (%): -9.66

compound: CSc1ccc(/C=N/N2CCN(Cc3ccccc3Cl)CC2)cc1
inhibition (%): 23.8

compound: CC(=O)c1cccc(-n2nnnc2SCC(=O)NNC(=O)C2CCCCC2)c1
inhibition (%): 12.8

compound: CC(C)Oc1ccc(Cc2n[nH]c(=S)n2Cc2ccccc2)cc1Cl
inhibition (%): 17.8

compound: O=C(O)c1cccc(NC(=S)N/N=C/c2c[nH]c3ccccc23)c1
inhibition (%): 4.36

compound: Cc1ccc(S(=O)(=O)N(C)C)cc1NC(=O)COC(=O)C1COc2ccccc2O1 (stereo not drawn)
inhibition (%): -14.6

compound: CO/N=C/c1cn(-c2ccc(Cl)cc2)nn1
inhibition (%): -2.58

compound: COC(=O)CSc1ccc2nnc(CCNS(=O)(=O)c3ccc(C)cc3)n2n1
inhibition (%): 0.44

compound: S=C(NCc1ccco1)Nc1ccc2c(c1)OCCO2
inhibition (%): 9.66

compound: COc1ccc(-c2ccc(CCC(=O)O)n2-c2ccc(O)cc2)cc1
inhibition (%): -2.11

compound: OCCC1CN(Cc2cccc(O)c2)CCN1CCc1ccccc1 (stereo not drawn)
inhibition (%): 8.67

compound: Cc1cc(C)c2[nH]c(=O)c(CN(Cc3ccccc3)C(=S)NCCCN(C)C)cc2c1
inhibition (%): 16.4

---

- assay: growth inhibition of WT strain, primary screen, mitochondrial fusion inhibitor project, WT and mutant strains, chemical genetic (AID 1362)
- experimentalContext: mitochondrial fusion phenotypic screen, WT strain, growth inhibition; at 10 µM; stronger effect = higher value
The campaign covered roughly 190,000 compounds. About 4,000 (2.1%) were called active. Shown is part of a subset that was picked to be rich in actives.

molecule: CS(=O)(=O)N(CC(=O)N/N=C/c1ccccn1)c1ccc(Oc2ccccc2)cc1
inhibition / %: 13
--
molecule: Cc1ccc(NC(=S)N/N=C2/CCCc3c(C)cc(C)cc32)cc1
inhibition / %: 23.1
--
molecule: Cc1ccc2nc(C)cc(N/N=C/c3ccc(F)cc3)c2c1
inhibition / %: 6.16
--
molecule: Cc1ccc(C)c(NC(=S)NNC(=O)c2csc(C)c2)c1
inhibition / %: -2.09
--
molecule: COc1cc(S(=O)(=O)N2CCOCC2)ccc1NC(=O)COc1ccc(N(C)S(=O)(=O)c2ccc(C)cc2)cc1
inhibition / %: 3.51
--
molecule: COc1ccc(CNc2c(CO)cnc3c2cnn3C)cc1
inhibition / %: 4.76
--
molecule: CC(=O)Nc1ccc(-c2csc(NC=C3C(=O)OC(C)(C)OC3=O)n2)cc1
inhibition / %: -0.59
--
molecule: CCOc1cc(N2CCOCC2)c(OCC)cc1NC(=O)C1=NN(c2cccc(C)c2)C(=O)CC1
inhibition / %: -2.98
--
molecule: Cc1cc(=O)[nH]c(SCC(N)=O)c1C#N
inhibition / %: 59.8
--
molecule: CN(C)C=NC(=O)c1cccn1-c1ncc(C(F)(F)F)cc1Cl
inhibition / %: 17.4
--
molecule: c1ccc2c(NC3C4CC5CC(C4)CC3C5)nc(N3CCOCC3)nc2c1 (stereo unspecified)
inhibition / %: 69.3

---

- assay: growth inhibition of WT strain, primary screen, mitochondrial fusion inhibitor project, WT and mutant strains, chemical genetic (AID 1362)
- experimentalContext: mitochondrial fusion phenotypic screen, WT strain, growth inhibition; at 10 µM
Out of some 190,000 compounds screened, about 4,000 (2.1%) were called active. No stated cut-off is given here; in the data, active means inhibition above about 58%; inactive means the rest, inconclusive results apart; tested in S. cerevisiae. This excerpt belongs to a sample that is enriched for actives.
Classes used: 1 (yes) (active), 0 (no) (inactive)

compound: S=C(NCCc1ccccc1)N1CCCCC1
class: 0 (no)
--
compound: O=[N+]([O-])c1ccc(Oc2ccc(F)cc2Br)c2ccncc12
class: 1 (yes)
--
compound: COCCN(C(=O)C(C)C)c1nnc(-c2ccc(C(C)(C)C)cc2)s1
class: 1 (yes)
--
compound: COCCN(C(=O)c1ccco1)c1nnc(-c2ccc(OC)cc2)s1
class: 0 (no)
--
compound: CC(C)c1nc(CNC(=O)CC2C(=O)NCCN2Cc2ccoc2)cs1 (stereo unspecified)
class: 0 (no)
--
compound: COCCCNC(=S)N(Cc1ccccc1)Cc1ccc(F)cc1
class: 0 (no)
